# PROCEDURE_DETAILS: plasmodial surface anion channel blockers, osmotic lysis – cell-based, P. falciparum Indochina, OD700, 1 h, primary screen (AID 1154)
# TEST_CONTEXT: P. falciparum Indochina infected RBC osmotic lysis, called active from +8 up or from −8 down
Activity calls are given as the source filed them.
In this exercise, the only acceptable responses are active, inactive

QUERY: # lookup: test call for C=CCC(OC(C)=O)[C@@H]1[C@@H](N(Cc2ccc(-c3cccc(C(F)(F)F)c3)o2)C(=O)c2ccc(-c3ccccc3)cc2)c2cc(OCCCO)ccc2N1C(=O)c1ccc2ccccc2c1 (some centres undefined)
RESULT: inactive

QUERY: # lookup: test call for O=C1C[C@]2(c3ccc([N+](=O)[O-])cc3)C(=O)N(C3CC3)c3cc(CO)ccc3[C@H]2N1C1CCCCC1
RESULT: inactive

QUERY: # lookup: test call for C=CC[C@@]12N=C(c3ccc(OCCCO)cc3)O[C@@H]1c1ccccc1N(CCC)C2=O
RESULT: active

QUERY: # lookup: test call for CC(C)(C)N1CC=CC23O[C@@H]4/C=C\CCCOC(=O)C4[C@H]2C(=O)N(CCCCCO)[C@@H]3C1=O (some centres undefined)
RESULT: inactive

---

# PROCEDURE_DETAILS: growth of efflux-deficient E. coli DRC39 – strain DRC39, OD650, 24 h, E. coli filamentation inducers, primary screen (AID 1178);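 note: growth measured as culture turbidity by optical density at 650 nm; test concentration not given here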
# TEST_CONTEXT: E. coli DRC39 acrAB, higher = more signal, called active from +8 up or from −8 down
REPORTED_PROPERTY: z-score
Form: value (number only, do not type unit).

QUERY: Could you share which z-score value was measured for C=CCN1C(=O)[C@]2(O[C@H](CCn3cc([C@H](O)c4ccccc4)nn3)[C@@H]([Si](C)(C)c3ccc(OC)cc3)[C@@H]2C)c2cc(NC(=O)c3ccc(OC)cc3)ccc21 ?
RESULT: 0.517

QUERY: Could you share which z-score value was measured for CN1C(=O)[C@@H]2[C@@H](CC(COc3ccccc3)=C3[C@@H](CCc4ccccc4)OB(O)C[C@@H]32)C1=O ?
RESULT: 0.0204

QUERY: Could you share which z-score value was measured for O=C(NCc1ccccc1)[C@@H]1c2ccccc2C(=O)N(Cc2cc(C(F)(F)F)cc(C(F)(F)F)c2)[C@H]1c1ccc(CO)cc1 ?
RESULT: 0.324

QUERY: Could you share which z-score value was measured for C=CCC(OC(C)=O)[C@@H]1[C@@H](N(Cc2cccc3ccccc23)C(=O)Cc2ccc(OC)cc2)c2cc(OCCCO)ccc2N1C(=O)Cc1ccc2ccccc2c1 (stereo partly specified) ?
RESULT: 0.685

QUERY: Could you share which z-score value was measured for CC(C)=CCCC(C)=CC(O)C1C=CC2C(=O)NC(=O)C2N1Nc1ccc(Cl)cc1Cl (stereo unspecified) ?
RESULT: -0.0552

QUERY: Could you share which z-score value was measured for COCCOC(=O)N1C(=O)[C@@]2(c3cc(C#CCCO)ccc31)[C@H](c1ccc(OCCO)cc1)N1[C@H](c3ccccc3)[C@H](c3ccccc3)OC(=O)[C@H]1[C@@H]2C(=O)N1CCCCCCC1 ?
RESULT: -0.442

---

# PROCEDURE_DETAILS: probe aShh binding to arrayed compounds – biochemical, biotinylated probe, 635/667 nm fluorescence, primary screen (AID 1114);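 note: probe is biotin-labelled aShh protein from a stem cell growth factor screen; measures binding of labelled protein to compounds printed on the slide; score merges feature fluorescence at 667 nm with signal-to-noise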
# TEST_CONTEXT: small-molecule microarray, higher = more signal
Please respond with reported composite z-score for every item in the list.

QUERY: Could you share which composite z-score value was measured for CCOc1cc(C(O)C2C=CC3C(=O)N(c4ccccc4)C(=O)C3N2Nc2ccccc2F)ccc1O (centres undefined) ?
RESULT: 0.536

QUERY: Could you share which composite z-score value was measured for C=CCC(OC(C)=O)[C@@H]1[C@@H](N(Cc2cccc3ccccc23)C(=O)Cc2ccc(OC)cc2)c2cc(OCCCO)ccc2N1C(=O)c1ccc2ccccc2c1 (some centres undefined) ?
RESULT: 0.138

QUERY: Could you share which composite z-score value was measured for CC(C)(C)OC(=O)CC[C@]1(C(=O)NCC(O)CO)N=C(c2ccc(OCCCO)cc2)O[C@H]1c1ccccc1N=[N+]=[N-] (some centres undefined) ?
RESULT: -0.221

QUERY: Could you share which composite z-score value was measured for CC(C)=CCCC(C)=CC(O)C1C=CC2C(=O)NC(=O)C2N1Nc1ccccn1 (centres undefined) ?
RESULT: -0.153

QUERY: Could you share which composite z-score value was measured for COCCOC(=O)N1C(=O)[C@@]2(c3cc(C#CCCO)ccc31)[C@H](c1ccc(OCCO)cc1)N1[C@H](c3ccccc3)[C@H](c3ccccc3)OC(=O)[C@H]1[C@@H]2C(=O)N1CCCCCCC1 ?
RESULT: 0.599

QUERY: Could you share which composite z-score value was measured for COC(=O)C(CC#Cc1ccc2c(c1)[C@]1(C(=O)N2)[C@H](c2ccc(OCCO)cc2)N2[C@H](c3ccccc3)[C@H](c3ccccc3)OC(=O)[C@H]2[C@@H]1C(=O)N1CCCCCCC1)C(=O)OC ?
RESULT: 2.81

QUERY: Could you share which composite z-score value was measured for CC[C@@H]1C=C(C(=O)O)[C@H](c2ccc(OC)cc2)N1S(=O)(=O)c1ccc(C)cc1 ?
RESULT: -0.221

QUERY: Could you share which composite z-score value was measured for COC(=O)[C@]1(CCC(=O)OC(C)(C)C)N=C(c2ccc(OCCCO)cc2)O[C@@H]1c1ccccc1N=[N+]=[N-] ?
RESULT: -0.119

QUERY: Could you share which composite z-score value was measured for C=C(CCCC)/C(=C/C[C@H](OC(=O)c1ccncc1)c1ccc(OCCO)cc1)c1cnc2ccccc2c1 ?
RESULT: -0.0146

QUERY: Could you share which composite z-score value was measured for C=C(/C(=C/C[C@@H](OC(C)=O)c1cccc(OCCO)c1)c1cnc2ccccc2c1)C(C)C ?
RESULT: -0.0709

QUERY: Could you share which composite z-score value was measured for COc1ccc([Si](C)(C)[C@H]2[C@H](CC(=O)N3CCC[C@H]3CO)O[C@@]3(C(=O)N(Cc4ccc(N5CCCCC5=O)cc4)c4ccccc43)[C@@H]2C)cc1 ?
RESULT: 0.0639

QUERY: Could you share which composite z-score value was measured for C=C(CCCC)/C(=C/C[C@@H](OC(C)=O)c1ccc(CO)o1)c1cnc2ccccc2c1 ?
RESULT: 0.147

QUERY: Could you share which composite z-score value was measured for CCOC(=O)c1cn(C[C@H](Cc2ccccc2)NC(=O)N[C@H](CO)CCc2oc(C(C)=O)c(C(=O)OC)c2C(=O)OC)nn1 ?
RESULT: -0.0553

QUERY: Could you share which composite z-score value was measured for Cc1ccc(C(C)CC(O)C2C=CC3C(=O)N(C)C(=O)C3N2Nc2ccccc2)o1 (centres undefined) ?
RESULT: -0.0769

QUERY: Could you share which composite z-score value was measured for CCCNC(=O)[C@@]1(Sc2ccc(C)cc2)CC(=O)N(Cc2ccccc2Cl)[C@@H]1c1ccc(CO)cc1I ?
RESULT: -0.132

QUERY: Could you share which composite z-score value was measured for OCCCC1=CC(c2ccc(CN3CCCC3)cc2)N(Cc2cccc(OC(F)(F)F)c2)CC1 (centres undefined) ?
RESULT: -0.0769

QUERY: Could you share which composite z-score value was measured for CCCCC(O)C1C=CC2C(=O)N(c3ccccc3)C(=O)C2N1Nc1ccccc1 (centres undefined) ?
RESULT: 0.232

QUERY: Could you share which composite z-score value was measured for NC(=O)N1C(=O)C2C(C1=O)C1C=C(CCCO)C2C(C2CC2)N1Cc1sc2ccccc2c1Cl (centres undefined) ?
RESULT: 0.138

QUERY: Could you share which composite z-score value was measured for C=CC[C@@]12N=C(c3ccc(OCCCO)cc3)O[C@@H]1c1ccccc1N(CCC)C2=O ?
RESULT: 0.337

QUERY: Could you share which composite z-score value was measured for COCCn1c(C(=O)N(C)C)cc2c1C[C@H]1CN(C(=O)c3ccccc3)[C@@](Cc3ccc(OC)cc3)(C(=O)OC)[C@@H]21 ?
RESULT: 0.204

QUERY: Could you share which composite z-score value was measured for COC(=O)[C@@]1(Cc2ccccc2)N=C(c2ccc(OCCCO)cc2)O[C@H]1c1ccccc1CN=[N+]=[N-] ?
RESULT: -0.153

QUERY: Could you share which composite z-score value was measured for CCOC(=O)C1=C[C@@H](C(C)(C)C)N(S(=O)(=O)c2ccc(C)cc2)[C@H]1c1ccc(C#N)cc1 ?
RESULT: -0.154

QUERY: Could you share which composite z-score value was measured for COc1cc(CO)cc(I)c1O[C@H]1C=C(C(=O)NCCO)C[C@@H](NC2CCCCCC2)[C@@H]1O ?
RESULT: -0.0769

QUERY: Could you share which composite z-score value was measured for COCC(=C=CC[C@H](O)c1ccccc1OCCO)C[C@H](O)COCc1ccccc1 ?
RESULT: 0.275

QUERY: Could you share which composite z-score value was measured for COCCOC(=O)N1C(=O)[C@@]2(c3ccccc31)[C@H](c1ccc(O)cc1)N1[C@H](c3ccccc3)[C@H](c3ccccc3)OC(=O)[C@H]1[C@@H]2C(=O)N1CCCCCCC1 ?
RESULT: 3.03

QUERY: Could you share which composite z-score value was measured for O=C1O[C@H](c2ccccc2)[C@H](c2ccccc2)N2[C@H]1[C@@H](C(=O)N1CCN(c3ncccn3)CC1)[C@]1(C(=O)Nc3ccc(C#CCCO)cc31)[C@H]2c1ccc(O)cc1 ?
RESULT: 0.0684

QUERY: Could you share which composite z-score value was measured for COc1ccc(C(=O)Nc2cccc(CN3C(=O)[C@@]4(O[C@@H](CC(=O)N5CCC[C@H]5CO)[C@H]([Si](C)(C)c5ccc(OC)cc5)[C@H]4C)c4ccccc43)c2)cc1 ?
RESULT: -0.142

QUERY: Could you share which composite z-score value was measured for COc1ccc(C(O)C2C=CC3C(=O)N(C)C(=O)C3N2N(c2ccccc2)c2ccccc2)cc1 (centres undefined) ?
RESULT: -0.0843

QUERY: Could you share which composite z-score value was measured for C=CCC(OC(C)=O)[C@@H]1[C@@H](N(Cc2cccc3ccccc23)C(=O)c2ccc(-c3ccccc3)cc2)c2cc(OCCCO)ccc2N1C(=O)Cc1ccc2ccccc2c1 (some centres undefined) ?
RESULT: 0.0278

// data source = PubChem BioAssay
